B1: Ventral anterior homeobox 1, residues 102 to 157; numbered along this chain, Q5SQQ9 (parent)
chain: RTRTSFTAEQLYRLEMEFQRCQYVVGRERTELARQLNLSETQVKVWFQNRRTKQKK

Variants of: B1
methodSummary: abundance fitness (aPCA) (normalised: wild type 0, dead -1); higher = more abundant; growth selection in yeast, the domain comes from the species named
conditionLabel: Homo sapiens
The label depends only on abundance fitness: T if it is at least -0.07, F if it is smaller.

Sample answers from the record:
Problem: Check this variant for abundance fitness at or above -0.07: R50W
Solution: F

Problem: Check this variant for abundance fitness at or above -0.07: K44Y
Solution: F

Problem: Check this variant for abundance fitness at or above -0.07: Q54E
Solution: T

More entries:
Problem: Check this variant for abundance fitness at or above -0.07: L14V
Solution: F

Problem: Check this variant for abundance fitness at or above -0.07: L38W
Solution: F

Problem: Check this variant for abundance fitness at or above -0.07: E28A
Solution: F

Problem: Check this variant for abundance fitness at or above -0.07: F6Q
Solution: F

Problem: Check this variant for abundance fitness at or above -0.07: K55N
Solution: T

Problem: Check this variant for abundance fitness at or above -0.07: A8I
Solution: F

Problem: Check this variant for abundance fitness at or above -0.07: R27P
Solution: T

Problem: Check this variant for abundance fitness at or above -0.07: R27F
Solution: F

Problem: Check this variant for abundance fitness at or above -0.07: T2Y
Solution: F

Problem: Check this variant for abundance fitness at or above -0.07: Q42C
Solution: F

Problem: Check this variant for abundance fitness at or above -0.07: L32W
Solution: F
